# Test system: CAKI-1 renal
# ASSAY_PROCEDURE: NCI-60 one-dose screen, 48 h (100 = growth as untreated, 0 = no growth, -100 = all killed)
# CONDITION: 10 µM unless noted
# Method: Growth inhibition of the CAKI-1 human tumor cell line is measured as a screen for anti-cancer activity. Cells are grown in 96 well plates and exposed to the test compound for 48 hours. Compounds are tested at a single concentration, which is 10^-5 M for most compounds. The reported endpoint is percent growth (GI% or GIPRCNT), where numbers from 0 - 100% represent growth inhibition, and numbers from -100% - 0 represent cell death. For example, a value of 40 represents 60% growth inhibition. […]
About 83,000 compounds went through this panel and 20% of them were active in at least one assay; those are over-represented in the sample as a whole.
PROPERTY_NAME: growth (%)
Quick reminder: number only, in %, skip the unit.

SMILES_RECORD	growth [%]
Clc1ccc(CNc2ccc3nc(CCC4CCCCC4)[nH]c3c2)cc1	50.4
Cc1ccc(-c2nc3nc(-c4ccccc4)nc(N4CCN(S(=O)(=O)c5ccccc5)CC4)c3o2)cc1	84
Oc1ccccc1C=Nc1ccc(N2CCN(c3ccccc3)CC2)cc1	91.9

Query molecule follows.
Query string: Query: growth; subject: `COc1cc(CNC(=O)CCCC/C=C/C(C)C)ccc1OCc1cn(-c2ccc([N+](=O)[O-])cc2)nn1`
Result string: 96.7
